B1: LINE1-mini (parent)
chain: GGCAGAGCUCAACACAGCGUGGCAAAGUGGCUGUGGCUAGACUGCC

Variants of: B1
Experiment: self-cleavage, relative activity (ratio to wild type); higher = more cleavage; in vitro, sequencing; the parent is a self-cleaving ribozyme
Let's look at some variants and their measured self-cleavage.
Provide a numeric answer; units are not to be included.

Known results for variants:
{"Residue Codes": "GACAGAGCUCAACACAGGGUGGCAAAGUGGCUGUGGCUAGACUGCC [G2A C18G]", "self-cleavage": 0.46}
{"Residue Codes": "GGCAGAGCUCAACACAGCGAGGCAAAGUCGCUGUGGCUAGACUGCC [U20A G29C]", "self-cleavage": 0.55}
{"Residue Codes": "GGCAGAGCUCAACACAGCGUGGCAAAGUGGCUGGGGCUAGACUGGC [U34G C45G]", "self-cleavage": 0.13}

-- ask Find the recorded self-cleavage belonging to GGCAGAGAUCAACACAGCGUGGCAAAGUGGCUGUGGCUGGACUGCC [C8A A39G] and report it.
-- reply 0.08

-- ask Find the recorded self-cleavage belonging to GGCAGAGCUCAACACAGCCUGGCAAAGUGGCUGUGGCUCGACUGCC [G19C A39C] and report it.
-- reply 0.05

-- ask Find the recorded self-cleavage belonging to GGCAGAGCUCAACACAGCGUGGCCAAGCGGCUGUGGCUAGACUGCC [A24C U28C] and report it.
-- reply 0.69

-- ask Find the recorded self-cleavage belonging to GGCAUAGCUCAACACAGCGUGGCAAAGUGGCCGUGGCUAGACUGCC [G5U U32C] and report it.
-- reply 0.07

-- ask Find the recorded self-cleavage belonging to GGCAGAGCUCAACACAGUGGGGCAAAGUGGCUGUGGCUAGACUGCC [C18U U20G] and report it.
-- reply 0.41

-- ask Find the recorded self-cleavage belonging to GGCAGAGCUCAAGACAGCGUAGCAAAGUGGCUGUGGCUAGACUGCC [C13G G21A] and report it.
-- reply 0.38

-- ask Find the recorded self-cleavage belonging to GGCAGAGCUCAACACAGCGCGGGAAAGUGGCUGUGGCUAGACUGCC [U20C C23G] and report it.
-- reply 0.44

-- ask Find the recorded self-cleavage belonging to GGCAGAGCUCAACACAGCGUGGCAAAGUAGCUGUGGCUUGACUGCC [G29A A39U] and report it.
-- reply 0.93

-- ask Find the recorded self-cleavage belonging to GCCAGAGCUCAACACAGCGUGGCGAAGUGGCUGUGGCUAGACUGCC [G2C A24G] and report it.
-- reply 0.09

-- ask Find the recorded self-cleavage belonging to GGCAGAGCUCAACACAGCGUUGCAAAGUGGCUGUGGCUAGACAGCC [G21U U43A] and report it.
-- reply 0.08

-- ask Find the recorded self-cleavage belonging to GGCAGAGCUCGACACAGCGUGGCAAAGUGGCUGUGGCUAGACUGAC [A11G C45A] and report it.
-- reply 0.03

-- ask Find the recorded self-cleavage belonging to GGCAGAGCUCAACACACCCUGGCAAAGUGGCUGUGGCUAGACUGCC [G17C G19C] and report it.
-- reply 1.39

-- ask Find the recorded self-cleavage belonging to GGCAGAGCUCAACAGGGCGUGGCAAAGUGGCUGUGGCUAGACUGCC [C15G A16G] and report it.
-- reply 0.05

-- ask Find the recorded self-cleavage belonging to GGCAGAGCUCAACACAGGGUGGCAAAGUGGCUUUGGCUAGACUGCC [C18G G33U] and report it.
-- reply 0.07

-- ask Find the recorded self-cleavage belonging to UGCAAAGCUCAACACAGCGUGGCAAAGUGGCUGUGGCUAGACUGCC [G1U G5A] and report it.
-- reply 0.2

-- ask Find the recorded self-cleavage belonging to GGCAGAGCUCACCACAGCGUGGCAAAGUGGCUGUGGCUAGACUGUC [A12C C45U] and report it.
-- reply 0.03

-- ask Find the recorded self-cleavage belonging to GGCAGAGCUCAACACAGCGUGGCAAAGUCGCUGUGGCUAGACUGAC [G29C C45A] and report it.
-- reply 0.45

-- ask Find the recorded self-cleavage belonging to GGCAGAGCUCAACUCAGCGUGGCAAAGUGGCUGUGUCUAGACUGCC [A14U G36U] and report it.
-- reply 0.24

-- ask Find the recorded self-cleavage belonging to GGCAGAGCUCAACACAGCAUGGCAAAGUGGCUGUGGCUAGACUCCC [G19A G44C] and report it.
-- reply 0.48

Source listed as the RNAGym collection of RNA variant scans (doi:10.7554/elife.90254).
